# measured_target: human ether-à-go-go-related gene (hERG) potassium channel (human, UniProt Q12809)
# Sequence (Q12809 whole entry, looked up): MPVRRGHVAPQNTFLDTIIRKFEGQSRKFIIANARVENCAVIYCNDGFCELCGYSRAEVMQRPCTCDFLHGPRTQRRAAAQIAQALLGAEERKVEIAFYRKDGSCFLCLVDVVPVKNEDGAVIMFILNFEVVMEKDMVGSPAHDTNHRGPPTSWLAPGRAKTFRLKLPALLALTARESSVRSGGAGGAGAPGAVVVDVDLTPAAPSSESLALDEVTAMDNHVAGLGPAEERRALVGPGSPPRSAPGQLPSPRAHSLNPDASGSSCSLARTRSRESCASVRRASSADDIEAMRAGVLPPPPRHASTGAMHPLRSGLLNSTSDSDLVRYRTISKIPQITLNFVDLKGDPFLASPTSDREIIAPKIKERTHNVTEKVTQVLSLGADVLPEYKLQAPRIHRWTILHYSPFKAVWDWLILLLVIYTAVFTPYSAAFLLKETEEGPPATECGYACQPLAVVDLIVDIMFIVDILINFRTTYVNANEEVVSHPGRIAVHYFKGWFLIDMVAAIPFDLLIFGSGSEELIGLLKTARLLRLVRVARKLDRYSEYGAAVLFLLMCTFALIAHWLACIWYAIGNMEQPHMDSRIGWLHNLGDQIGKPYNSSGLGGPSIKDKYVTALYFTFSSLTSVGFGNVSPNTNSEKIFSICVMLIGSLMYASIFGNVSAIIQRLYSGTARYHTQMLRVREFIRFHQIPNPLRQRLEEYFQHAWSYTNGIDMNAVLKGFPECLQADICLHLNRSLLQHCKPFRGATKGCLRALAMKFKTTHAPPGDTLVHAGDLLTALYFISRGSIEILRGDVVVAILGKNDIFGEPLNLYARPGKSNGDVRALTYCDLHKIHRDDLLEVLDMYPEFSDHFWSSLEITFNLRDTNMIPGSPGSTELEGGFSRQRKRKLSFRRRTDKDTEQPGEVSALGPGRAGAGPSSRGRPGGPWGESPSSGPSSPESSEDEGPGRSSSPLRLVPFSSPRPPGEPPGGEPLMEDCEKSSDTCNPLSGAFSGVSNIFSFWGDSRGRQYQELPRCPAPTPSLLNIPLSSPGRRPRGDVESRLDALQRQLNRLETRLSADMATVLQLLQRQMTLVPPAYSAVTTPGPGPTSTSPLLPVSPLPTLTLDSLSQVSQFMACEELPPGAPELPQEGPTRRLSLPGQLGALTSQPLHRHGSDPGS
# assay_method_text: primary screen, population patch clamp on CHO cells stably expressing hERG; higher = less effect of the substance
About 14,000 (4.5%) of roughly 310,000 compounds showed an effect of 50% or more. The effect is printed as a negative number. This excerpt belongs to a sample that is enriched for strong results.
Listing: hERG current change (%, negative = inhibition) at 10uM of selected compounds
recorded_metric: hERG current change (%, negative = inhibition) at 10uM (%)

compound: COc1ccc(OCC(=O)N2CCCC(N3CCN(c4ccccc4C)CC3)C2)cc1 (centres unmarked)
measured_target: human ether-à-go-go-related gene (hERG) potassium channel (human, UniProt Q12809)
measured_value: -85.9
--
compound: C=CCn1c(=O)n(C(=O)OCC)c2cc(Br)ccc21
measured_target: human ether-à-go-go-related gene (hERG) potassium channel (human, UniProt Q12809)
measured_value: -50.2
--
compound: CCCCOc1ccc(NC(=O)C(=O)NCCC2=CCCCC2)cc1
measured_target: human ether-à-go-go-related gene (hERG) potassium channel (human, UniProt Q12809)
measured_value: 2.25
--
compound: CC(C)=CC(=O)N1CCCC(N2CCN(c3ccccc3C)CC2)C1 (centres unmarked)
measured_target: human ether-à-go-go-related gene (hERG) potassium channel (human, UniProt Q12809)
measured_value: -16
--
compound: CCOC(=O)c1c(CSc2nc(C)cc(C)c2C#N)n(C)c2cc(Br)c(OC(C)=O)cc12
measured_target: human ether-à-go-go-related gene (hERG) potassium channel (human, UniProt Q12809)
measured_value: 8.76
--
compound: CN(C)c1ccc(C=NCCc2ccc(S(N)(=O)=O)cc2)cc1
measured_target: human ether-à-go-go-related gene (hERG) potassium channel (human, UniProt Q12809)
measured_value: 6.19
--
compound: O=C(Nc1ccccc1N1CCCCC1)c1ccccc1F
measured_target: human ether-à-go-go-related gene (hERG) potassium channel (human, UniProt Q12809)
measured_value: -14.5
--
compound: CCCN(CCC)CCCNC(=O)CN1C(=O)CSc2ccc(S(=O)(=O)N3CCOCC3)cc21
measured_target: human ether-à-go-go-related gene (hERG) potassium channel (human, UniProt Q12809);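 further: peak tail current of the secondary pulse compared with the same well before compound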
measured_value: 20.2

====

Recorded hERG current change (%, negative = inhibition) at 10uM, one value per entry.
# measured_target: human ether-à-go-go-related gene (hERG) potassium channel (human);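 further: peak tail current of the secondary pulse compared with the same well before compound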
# assay_method_text: primary screen, population patch clamp on CHO cells stably expressing hERG; higher = less effect of the substance
Screen size: about 310,000 compounds; about 14,000 (4.5%) showed an effect of 50% or more. Effects have a minus sign here. This is one part of a sample in which strong results are shown more often than they occur.
recorded_metric: hERG current change (%, negative = inhibition) at 10uM (%)

structure_notation: COc1ccccc1CNc1ccc2nnc(CCNC(=O)c3ccc(C)cc3)n2n1
measured_value: -0.303
//
structure_notation: CC(=O)Nc1ccc(S(=O)(=O)/N=C2\SCCN2S(=O)(=O)c2ccc(NC(C)=O)cc2)cc1
measured_value: -5.46
//
structure_notation: O=c1[nH]c(CN2CCc3ccccc3C2)nc2ccccc12
measured_value: 5.47
//
structure_notation: CCOc1ccc(-n2c(SCc3nc(-c4ccc(C)cc4)no3)nnc2-c2ccncc2)cc1
measured_value: -73.2
//
structure_notation: CS(=O)(=O)c1ccccc1-c1nnc(NC(=O)COc2ccc(Cl)cc2)o1
measured_value: -6.82
//
structure_notation: COc1ccc(-c2nc(CN3CCC(C(=O)NC4CCCC4)CC3)c(C)o2)cc1OC
measured_value: -36.4
//
structure_notation: CCOc1ccccc1CNCCc1ccc2c(c1)OCO2.Cl
measured_value: -32.8

====

# hERG current change (%, negative = inhibition) at 10uM annotations
# measured_target: human ether-à-go-go-related gene (hERG) potassium channel (human);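 further: peak tail current of the secondary pulse compared with the same well before compound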
# assay_method_text: primary screen, population patch clamp on CHO cells stably expressing hERG; higher = less effect of the substance
The whole screen tested about 310,000 compounds, of which about 14,000 (4.5%) showed an effect of 50% or more. Effects have a minus sign here. What follows is part of a selection rich in strong results, with near analogues and random picks from the rest.
recorded_metric: hERG current change (%, negative = inhibition) at 10uM (%)

molecule: COc1cccc(O)c1CN1CCCC(C(=O)c2sccc2C)C1 (stereo not drawn)
measured_value: -45.9
--
molecule: Fc1ccc(OCCOCCN2CCNCC2)cc1.O=C(O)C(=O)O
measured_value: 6.98
--
molecule: COc1ccc(S(=O)(=O)Nc2cccc(S(=O)(=O)NC3=NCCC3)c2)cc1[N+](=O)[O-]
measured_value: 18.6
--
molecule: CC(c1ccco1)N(C(=O)c1cccc(S(=O)(=O)N(C)C)c1)c1ccccn1 (stereo not drawn)
measured_value: 16
--
molecule: O=C(C1CCCN(S(=O)(=O)c2cc(Cl)ccc2Cl)C1)N1CCOCC1 (stereo not drawn)
measured_value: -33.2
--
molecule: O=S(=O)(Nc1ccccc1O)c1cccc2cccnc12
measured_value: 8.14
--
molecule: CC(C)(C)N1C(=O)Cc2c1nc(N)c1c(N)nc(N3CCCCC3CO)c(C#N)c21 (stereo not drawn)
measured_value: -24.3
--
molecule: COc1ccc(C(=O)N=C2SC3CS(=O)(=O)CC3N2Cc2ccccc2)cc1OC (stereo not drawn)
measured_value: 13.3
--
molecule: Cn1cnc2c1c(=O)n(CC(O)CO)c(=O)n2C (stereo not drawn)
measured_value: 23
--
molecule: Cn1cc(CN2CCCC(C(=O)c3cc(F)ccc3F)C2)c2ccccc21 (stereo not drawn)
measured_value: -31.1
--
molecule: O=C(CN1CCN(Cc2ccc(Cl)cc2)C1=O)NCCCN1CCOCC1
measured_value: -2.85
--
molecule: CC(C)(C)c1cc(-c2n[nH]c(=S)n2-c2ccc(Cl)cc2)n[nH]1
measured_value: 17.3

====

Below, each of the molecules is paired with its reported hERG current change (%, negative = inhibition) at 10uM value.
# measured_target: human ether-à-go-go-related gene (hERG) potassium channel (human, UniProt Q12809);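 further: peak tail current of the secondary pulse compared with the same well before compound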
# assay_method_text: primary screen, population patch clamp on CHO cells stably expressing hERG; higher = less effect of the substance
# Method: Briefly, Chinese hamster ovary (CHO) cells stably expressing the hERG channel were dislodged from tissue culture flasks and dispensed into PPC plates. […] During the recording, background leak currents were estimated by a 100 ms step to -80 mV from an initial holding potential of -70 mV and subtracted from the subsequent current measurement. The campaign was conducted in two phases using slight differences in recording protocol. […]
The whole screen tested about 310,000 compounds, of which about 14,000 (4.5%) showed an effect of 50% or more. Effects have a minus sign here. This is one part of a sample in which strong results are shown more often than they occur.
recorded_metric: hERG current change (%, negative = inhibition) at 10uM (%)

molecule: COc1ccc(C(=O)N[C@H]2CCCCNC2=O)cc1OC1CCN(C(C)C)CC1
measured_value: 15.3
--
molecule: Cc1ccc(CNC(=O)CCC2CCCN(Cc3c(C)nn(C(C)C)c3C)C2)o1 (stereo not shown)
measured_value: -16.6
--
molecule: COc1cc(NC(=O)CSCc2ccc(Cl)cc2)c(C(=O)O)cc1OC
measured_value: 13.6
--
molecule: O=C(C1=C[C@@H](c2ccc(Br)cc2)C[C@@H](OCCCCO)O1)N1CCOCC1
measured_value: -15.7
--
molecule: CCOc1ccccc1NS(=O)(=O)c1csc(C(N)=O)c1
measured_value: 11.7
--
molecule: COc1ccc(C(=O)NC2CCCCCC2)cc1OC1CCN(C(C)=O)CC1
measured_value: -4.48
--
molecule: CCOC(=O)C1CCN(C(=O)c2ccccc2CCc2ccccc2)CC1
measured_value: -8.95
--
molecule: COc1ccc(C(=O)NCCCSC)cc1OC1CCN(C(C)C)CC1
measured_value: -11.8
--
molecule: COc1ccc(/C=N/n2c(=O)[nH]c3c([nH]c4ccc(Br)cc43)c2=O)cc1CN1CCOCC1
measured_value: 5.45
--
molecule: COC(=O)CN(C)C(=O)c1ccc(OC)c(OC2CCN(C(C)C)CC2)c1
measured_value: 13.1
--
molecule: O=C(C1=C[C@H](c2ccc(C(F)(F)F)cc2)C[C@H](OCCCCO)O1)N1CCN(Cc2ccccc2)CC1
measured_value: -49.6
--
molecule: COc1ccc(C(=O)N(C)CCCC2CCCC2)cc1OC1CCN(C(C)=O)CC1
measured_value: -32.2
--
molecule: CCC(=O)c1ccc(N2CCN(C(=O)c3cccc(F)c3)CC2)c(F)c1
measured_value: -41.6
--
molecule: CCOCCCNC(=O)c1ccc(OC)c(OC2CCN(C(C)C)CC2)c1
measured_value: 10.7
--
molecule: COc1cc(C(=O)N/N=C/c2sc(N3CCOCC3)nc2-c2ccccc2)cc(OC)c1OC
measured_value: 3.33
--
molecule: CC1=C(C(=O)Nc2ccccc2)C(c2ccc3c(c2)OCO3)C2=C(CCCC2=O)N1 (stereo not shown)
measured_value: -14.2
--
molecule: C=CCn1c2ccccc2c2nnc(SCC(=O)NC(C(=O)OC)C(C)C)nc21 (stereo not shown)
measured_value: -15.1
--
molecule: Cc1ccc(NC(=O)/C(=C/c2cccs2)NC(=O)c2ccco2)c(C)c1
measured_value: -9.56
--
molecule: CCC(=O)c1ccc(N2CCN(C(=O)c3ccc(F)cc3)CC2)c(F)c1
measured_value: -60
--
molecule: O=C(C1=C[C@@H](c2ccc(C(F)(F)F)cc2)C[C@@H](OCCCCO)O1)N1CCN(Cc2ccccc2)CC1
measured_value: -60.6
--
molecule: CN1CCN(C(=O)C2=C[C@@H](c3ccccc3)C[C@@H](OCCCCO)O2)CC1
measured_value: -6.11
--
molecule: Cc1ccc(CNC(=O)CCC2CCCN(Cc3ccc4cccc(F)c4n3)C2)o1 (stereo not shown)
measured_value: -52.1
